conditions: 328.15 K; 101.33 kPa; Liquid; Alternating current cell with electrodes
MEASURE: electrical conductivity (S/m)
Numeric only. Scale: S/m

The following compounds have reported results that may help.
[[record]]
compound = "CCCCCCCCn1cc[n+](C)c1.O=S(=O)([N-]S(=O)(=O)C(F)(F)F)C(F)(F)F"
measure_unit = "S/m"
observed_value = 0.415

[[record]]
compound = "CC(=O)[O-].CCn1cc[n+](C)c1 [1-ethyl-3-methylimidazolium acetate]"
measure_unit = "S/m"
observed_value = 1.07


Data request: Report electrical conductivity for CCCCCC[n+]1ccn(C)c1.O=S(=O)([N-]S(=O)(=O)C(F)(F)F)C(F)(F)F please.
Data returned: 0.634

Data request: Another compound to check: CCCCn1cc[n+](C)c1.O=S(=O)([N-]S(=O)(=O)C(F)(F)C(F)(F)F)C(F)(F)C(F)(F)F [1-butyl-3-methylimidazolium bis(perfluoroethylsulfonyl)imide]
Data returned: 0.475
